# test details: qHTS assay to identify small molecule agonists of the TGF-beta/Smad signaling pathway - cell viability counter screen (AID 1346829); note: nearly all actives have a fitted effect of over 45% in size
# run parameters: SBE-bla HEK293T viability, CellTiter-Glo luminescence, 5 h; series mostly up to 76.8 µM
Inconclusive results are not listed. The source made the active and inactive calls. Calls come from the whole dose curve; as a rule, active = well fitted cell-killing curve with a large enough effect in the repeat runs; inconclusive = weak or mixed curves, or effect the other way; inactive = flat fitted curve, though single readings scatter.
Can you answer with just one of these options? T = active, F = inactive

compound	assigned category
O=C(O)CCc1ccccc1	F

(Q) Query: recorded result category for COc1ccc(Cc2cnc(N)nc2N)cc1OC in this test
(A) F

(Q) Query: recorded result category for CCN(CC)c1ccc2c(C)cc(=O)oc2c1 in this test
(A) F

(Q) Query: recorded result category for O=c1n(CC2CO2)c(=O)n(CC2CO2)c(=O)n1CC1CO1 (stereo unspecified) in this test
(A) F

(Q) Query: recorded result category for CCCCOCCOC(=O)c1ccccc1C(=O)OCCOCCCC in this test
(A) F

(Q) Query: recorded result category for COC(=O)/C=C/c1ccccc1 in this test
(A) F

(Q) Query: recorded result category for CC(C)(O)CCC(C)(C)O in this test
(A) F

(Q) Query: recorded result category for Clc1ccc2c(c1)C(N1CCNCC1)=Nc1ccccc1O2 in this test
(A) F

(Q) Query: recorded result category for Cc1ccnc2c1NC(=O)c1cccnc1N2C1CC1 in this test
(A) F

(Q) Query: recorded result category for CC(=O)CC(C)=O in this test
(A) F

(Q) Query: recorded result category for O=Cc1ccc(Cl)cc1 in this test
(A) F

(Q) Query: recorded result category for CCCCCCCCCCCCCC[P+](CCCC)(CCCC)CCCC in this test
(A) T

(Q) Query: recorded result category for CCOc1ccc2c(c1)C(C)=CC(C)(C)N2 in this test
(A) F

(Q) Query: recorded result category for O=C1NCC2(CCN(CCc3ccccc3)CC2)O1 in this test
(A) F
